- MEASURED ON: Sushi domains (SD1/2) protein of the GABAB1a (GB1a) subunit, recombinant
- Sequence (Q9Z0U4 29-158): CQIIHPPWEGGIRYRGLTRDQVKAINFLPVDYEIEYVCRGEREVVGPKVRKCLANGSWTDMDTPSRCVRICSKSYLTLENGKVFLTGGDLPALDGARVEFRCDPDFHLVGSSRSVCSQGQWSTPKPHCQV
- TEST PROTOCOL: FP competition
pKi: −log10 of the molar value. Non-standard residues stand in square brackets, D forms with d. NMeT = CN[C@H](C(=O)O)[C@@H](C)O; NMeD = CN[C@@H](CC(=O)O)C(=O)O
ENDPOINT LABEL: pKi

These recorded examples may help you get a feel for the data.
BINDER	pKi
Ac-ETEFIAWGP[NMeT]GDED-NH2 (SMILES CC[C@H](C)[C@H](NC(=O)[C@H](Cc1ccccc1)NC(=O)[C@H](CCC(=O)O)NC(=O)[C@@H](NC(=O)[C@H](CCC(=O)O)NC(C)=O)[C@@H](C)O)C(=O)N[C@@H](C)C(=O)N[C@@H](Cc1c[nH]c2ccccc12)C(=O)NCC(=O)N1CCC[C@H]1C(=O)N(C)[C@H](C(=O)NCC(=O)N[C@@H](CC(=O)O)C(=O)N[C@@H](CCC(=O)O)C(=O)N[C@@H](CC(=O)O)C(N)=O)[C@@H](C)O) […(N-Me-T)GDED]	7.11
Ac-EDDSDVWWGGA[NMeD]TD-NH2 (SMILES CC(=O)N[C@@H](CCC(=O)O)C(=O)N[C@@H](CC(=O)O)C(=O)N[C@@H](CC(=O)O)C(=O)N[C@@H](CO)C(=O)N[C@@H](CC(=O)O)C(=O)N[C@H](C(=O)N[C@@H](Cc1c[nH]c2ccccc12)C(=O)N[C@@H](Cc1c[nH]c2ccccc12)C(=O)NCC(=O)NCC(=O)N[C@@H](C)C(=O)N(C)[C@@H](CC(=O)O)C(=O)N[C@H](C(=O)N[C@@H](CC(=O)O)C(N)=O)[C@@H](C)O)C(C)C) […(N-Me-D)TD]	6.39

1: Ac-TEFIAWGPTGDED-NH2
2: Ac-TTETEFIAWGPTGDED-NH2
Inquiry: Which of the two items, 1 and 2 , has the greater recorded pKi? Label of pick, please.
Reply text: 2
